Data provenance: patent US20070265271A1

Provide the reported melting point of each item.

substance-smiles	melting point
CC(=O)Nc1cccc(-c2ccc(C(=O)N3CC4CCC(C3)N4C)o2)c1.O=C(O)/C=C/C(=O)O	189 to 193 °C
CN1C2CCC1CN(C(=O)c1cc3ccccc3o1)C2.O=C(O)/C=C/C(=O)O	150 to 155 °C
CN1C2CCC1CN(C(=O)c1ccc(-c3ccccc3)cc1)C2.O=C(O)/C=C/C(=O)O	197 to 207 °C

Prompt: Reported melting point for CN1C2CCC1CN(C(=O)c1ccc(-c3cccc(C(F)(F)F)c3)o1)C2.O=C(O)/C=C/C(=O)O : what is it?
Completion: 108.7 to 109.4 °C
